System: OVCAR-3 ovarian
Experiment: NCI tumour cell line growth inhibition, 48 h
recorded-metric: TGI (µM)
Could you give me the number in µM? Just the number is fine.

Record lookup: for OVCAR-3 ovarian, what TGI belongs to O=C(Nc1ccncc1)C(=O)c1cn(S(=O)(=O)c2ccc(Cl)cc2)c2ccccc12 ? 9.44

Record lookup: for OVCAR-3 ovarian, what TGI belongs to CC(=O)c1c(C)[nH]c(-c2nc3ccc(N4CCN(C)CC4)cc3[nH]2)c1-c1ccc(N(C)C)cc1 ? 17

Record lookup: for OVCAR-3 ovarian, what TGI belongs to COCc1cc(C(=O)Nc2cc([C@H]3CC[C@@H](OC(=O)NC(C)C)C3)[nH]n2)n(C)n1 ? 30.6

Record lookup: for OVCAR-3 ovarian, what TGI belongs to O=C(NCCCO)c1cc(Cl)ccc1O ? 9.11

###

Tested on: ACHN renal
Assay: NCI tumour cell line growth inhibition, 48 h
Provide the recorded GI50 for the entries that follow.

If you can, please state the reported GI50 value of [N-]=[N+]=NCCCCCC(=O)OC(C(=O)c1ccccc1)c1cccc(OCC(=O)NCCOCCOCCNC(=O)CCCC[C@@H]2SC[C@@H]3NC(=O)N[C@@H]32)c1 (stereo partly drawn) . > 100000 nM

If you can, please state the reported GI50 value of O=c1cc(-c2cccc3c2Sc2ccccc2S3)oc(N2CCOCC2)c1 . 11400 nM

If you can, please state the reported GI50 value of O=C(COc1cc(O)c2c(=O)cc(-c3ccccc3)oc2c1)Nc1ccccc1C(F)(F)F . 2910 nM

If you can, please state the reported GI50 value of CCN(CC)CC(O)CNc1c2ccc([N+](=O)[O-])cc2nc2cc(OC)c(OC)cc12 (stereo not drawn) . 396 nM

If you can, please state the reported GI50 value of CC(C)([NH-])CO.CC(C)([NH-])CO.[Cl][Cd][Cl] . > 100000 nM

If you can, please state the reported GI50 value of COc1cc(C(=O)N2CCN(c3ncnc4ccccc34)CC2)c(N)cc1OCc1ccccc1 . 14000 nM

If you can, please state the reported GI50 value of CC(=O)c1c(C)[nH]c(-c2nc3ccc(N4CCN(C)CC4)cc3[nH]2)c1-c1ccc(N(C)C)cc1 . 773 nM

If you can, please state the reported GI50 value of CCC(=C/[C@H](C)C/C=C/C(C)=C/[C@@H](C)C(=O)[C@@H](C)[C@H](O)[C@@H](C)CC)/C=C/[C@@H]1OC(=O)C=C[C@H]1C . < 10 nM

###

Test system: NCI-H23 lung
Assay: NCI tumour cell line growth inhibition, 48 h
recorded-metric: TGI

If you can, please state the reported TGI value of NCCOCCOCCNc1nc(-c2ccccc2)nc(N2CCN(c3ccccn3)CC2)n1 . 31.3 µM

If you can, please state the reported TGI value of Cc1cccc(C(C)(C)C)c1NC(=O)CC1C(=O)Nc2ccccc2S1(=O)=O (stereo not given) . 18.9 µM

If you can, please state the reported TGI value of CC(=O)OC[C@@H](COC(=O)/C=C/c1ccc(O)cc1)OC1OC(CO)C(O)C(O)C1O (stereo not given in full) . > 100 µM

If you can, please state the reported TGI value of COC(=O)c1cc(C(=CCC[C@H]2CC[C@@]3(C)C(CCC4C3CC[C@@]3(C)C4CC[C@@H]3C(C)CCCC(C)C)C2)c2cc(Cl)c(O)c(C(=O)OC)c2)cc(Cl)c1O (stereo not given in full) . > 10 µM

If you can, please state the reported TGI value of COc1cc(-c2cc(O)c(-c3ccc4ccccc4n3)c(=O)[nH]2)cc(OC)c1OC . > 95.5 µM

If you can, please state the reported TGI value of COc1c2ccoc2c(OC)c2oc(=O)ccc12 . > 100 µM

If you can, please state the reported TGI value of COc1cc(NCCCN=C(N)NC(N)=NC(C)C)c2ncccc2c1 . 29.6 µM

If you can, please state the reported TGI value of Cn1cnc([N+](=O)[O-])c1Sc1nccn1-c1cccc2ccccc12 . 50.6 µM

If you can, please state the reported TGI value of C[C@@]12CCC[C@@](C)(C(=O)O)C1CC[C@]13C[C@@](O)(CO)[C@](O)(CCC12)C3 (stereo not given in full) . > 100 µM

If you can, please state the reported TGI value of O=C1C(=O)N(c2cccc(C(F)(F)F)c2)C(=S)N1c1ccccc1 . 82.9 µM

If you can, please state the reported TGI value of OC(c1ccc(C(F)(F)F)cc1)C(F)(F)c1nc2ccccc2o1 (stereo not given) . > 100 µM

If you can, please state the reported TGI value of O=c1c(Br)cc2nc3ccccc3sc-2c1Br . > 100 µM

If you can, please state the reported TGI value of CCC(=O)Nc1ccc(NC(C#N)c2cccc(Oc3ccccc3)c2)cc1 (stereo not given) . > 100 µM

If you can, please state the reported TGI value of CCOC(=O)C(Cc1ccc(OC(=O)c2ccc(OC)cc2)cc1)NC(=O)C(F)(F)F (stereo not given) . > 100 µM

If you can, please state the reported TGI value of CC(=O)OCC1OC(n2c(-c3ccccc3)c(C(C)=O)c(-c3cccc4ccccc34)c(C#N)c2=S)C(OC(C)=O)C(OC(C)=O)C1OC(C)=O (stereo not given) . > 100 µM

If you can, please state the reported TGI value of CS(=O)(=O)CCc1cccc(C(=O)c2cnn(-c3ccc(F)cc3)c2N)c1 . > 25 µM

If you can, please state the reported TGI value of O=C(Cc1ccc(F)c(F)c1)Nc1cc(C2(C(F)(F)F)CC2)nn1Cc1ccccc1 . 10.9 µM

If you can, please state the reported TGI value of COc1ccc(Cc2nnc(Nc3ccc(Br)cc3)[nH]c2=O)cc1OC . > 100 µM

If you can, please state the reported TGI value of C#Cc1c(/C=C/C(=O)OCC)ccc2ccccc12 . 47.9 µM

If you can, please state the reported TGI value of COC(=O)C(Cc1c[nH]c2ccccc12)NC(=O)c1ccc(-c2ccc(Cl)cc2Cl)o1 (stereo not given) . > 100 µM

###

Tested on: A549 NSCLC
Experiment: NCI tumour cell line growth inhibition, 48 h
Provide the recorded TGI for the entries that follow.

If you can, please state the reported TGI value of N=c1ccn(O)cc1/C=C1/C(=O)Nc2ccccc21 . > 100 µM

If you can, please state the reported TGI value of C/C(CC(=O)Nc1ccc(C)c(C)c1)=N\NC(N)=O . > 100 µM

If you can, please state the reported TGI value of CC1=C(c2ccccc2)NC(=S)C(C)C(c2ccccc2)=N1 (centres undefined) . > 100 µM

If you can, please state the reported TGI value of CCN(CC)CC(O)CNc1c2ccc([N+](=O)[O-])cc2nc2cc(OC)c(OC)cc12 (centres undefined) . 0.854 µM

If you can, please state the reported TGI value of CO/N=C(\C)c1ccc(Nc2cc(-c3ccccc3)nc3ccc(OC)cc23)cc1 . 70.2 µM

If you can, please state the reported TGI value of COc1ccc(/C(Cl)=C(\C=N/O)c2ccc(OC)c(OC)c2)cc1OC . > 100 µM

If you can, please state the reported TGI value of CC1(C)OC(=O)N(c2ccccc2)C12C=Cc1cccc([N+](=O)[O-])c1O2 (centres undefined) . > 100 µM

If you can, please state the reported TGI value of COc1cc(N(C)C)c(OC)cc1/C=C\c1ccnc2ccccc12 . > 10 µM

If you can, please state the reported TGI value of COc1cc(-c2cc(O)c(-c3ccc4ccccc4n3)c(=O)[nH]2)cc(OC)c1OC . > 95 µM

If you can, please state the reported TGI value of COc1ccc(Cc2nnc(Nc3ccc(Br)cc3)[nH]c2=O)cc1OC . > 100 µM

If you can, please state the reported TGI value of O=C(O)CCC(N=Cc1nc(-c2ccccc2)oc1O)C(=O)O (centres undefined) . > 100 µM

If you can, please state the reported TGI value of O=C(c1ccccc1)C(CN1CCCCC1)c1ccccc1 (centres undefined) . 43.8 µM

If you can, please state the reported TGI value of O=c1c(Br)cc2nc3ccccc3sc-2c1Br . > 100 µM

If you can, please state the reported TGI value of CC(C)NC(=O)N(Nc1ccccc1)C(C)(C)C . > 100 µM

If you can, please state the reported TGI value of COC1C(O)C(n2ncc3c(SC)nc(SC)nc32)OC1C(O)CO (centres undefined) . > 100 µM

If you can, please state the reported TGI value of CN1C(=O)C2(C=CC(O)CC2)c2ccccc21 (centres undefined) . > 100 µM

If you can, please state the reported TGI value of O=C(Nc1ccc(-n2ccc3c(NC(=O)c4ccccc4)ncnc32)cc1)Nc1ccc(Cl)c(Cl)c1 . 6.64 µM

If you can, please state the reported TGI value of O=C1c2ccccc2-c2nnc3c(c21)-c1ccccc1C3 . > 100 µM

If you can, please state the reported TGI value of Cc1c2c(c(O)c3c(O)cccc13)C(=O)C1(O)C(O)=C(C(=O)NCNc3ccc(C(N)=O)cn3)C(=O)C(N(C)C)C1C2 (centres undefined) . 23 µM

Entry source: PubChem BioAssay (NCI)
